# ASSAYED SYSTEM: Human TfR1 protein (R&D Systems, 2474-TR or Acro Biosystems, CD1-H5243) (human, UniProt P02786 89-760)
# Sequence (P02786 89-760 limits assumed): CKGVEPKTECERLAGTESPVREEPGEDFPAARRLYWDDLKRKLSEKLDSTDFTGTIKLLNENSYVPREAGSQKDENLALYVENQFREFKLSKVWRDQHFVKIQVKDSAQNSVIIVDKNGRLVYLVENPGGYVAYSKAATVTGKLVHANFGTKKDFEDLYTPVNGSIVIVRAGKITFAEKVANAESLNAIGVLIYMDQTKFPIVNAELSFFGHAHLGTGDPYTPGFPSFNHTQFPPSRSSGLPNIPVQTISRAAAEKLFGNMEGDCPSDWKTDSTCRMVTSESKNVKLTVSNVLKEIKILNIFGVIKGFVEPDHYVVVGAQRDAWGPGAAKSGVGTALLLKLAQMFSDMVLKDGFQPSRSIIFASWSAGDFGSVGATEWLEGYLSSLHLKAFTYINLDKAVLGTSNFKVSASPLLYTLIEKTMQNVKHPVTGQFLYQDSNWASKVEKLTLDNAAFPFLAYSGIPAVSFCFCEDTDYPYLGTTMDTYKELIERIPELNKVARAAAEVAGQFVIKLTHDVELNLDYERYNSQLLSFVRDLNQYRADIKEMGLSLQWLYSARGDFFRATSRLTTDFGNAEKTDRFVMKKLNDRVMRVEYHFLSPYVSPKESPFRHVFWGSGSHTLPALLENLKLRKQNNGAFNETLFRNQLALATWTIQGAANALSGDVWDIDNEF
# PROCEDURE SUMMARY: Alpha assay, competition with labelled transferrin
pIC50: −log10 of the molar value.
OUTCOME MEASURE: pIC50

| BINDER | pIC50 |
| --- | --- |
| ACALCNDWTLPWHHCA (3 Cys on TATA) [BCY12455] | 6.17 |
| ACLEACYDGVYWYSCA (3 Cys on TATA) [BCY12454] | 6.05 |
